measurement.target: DNA polymerase 1 (Klenow Fragment, KF) (Escherichia coli, UniProt P00582, L790C)
Construct: a cysteine variant of the Klenow fragment of DNA polymerase 1 (KF); made in house
Sequence (P00582 324-928 L790C): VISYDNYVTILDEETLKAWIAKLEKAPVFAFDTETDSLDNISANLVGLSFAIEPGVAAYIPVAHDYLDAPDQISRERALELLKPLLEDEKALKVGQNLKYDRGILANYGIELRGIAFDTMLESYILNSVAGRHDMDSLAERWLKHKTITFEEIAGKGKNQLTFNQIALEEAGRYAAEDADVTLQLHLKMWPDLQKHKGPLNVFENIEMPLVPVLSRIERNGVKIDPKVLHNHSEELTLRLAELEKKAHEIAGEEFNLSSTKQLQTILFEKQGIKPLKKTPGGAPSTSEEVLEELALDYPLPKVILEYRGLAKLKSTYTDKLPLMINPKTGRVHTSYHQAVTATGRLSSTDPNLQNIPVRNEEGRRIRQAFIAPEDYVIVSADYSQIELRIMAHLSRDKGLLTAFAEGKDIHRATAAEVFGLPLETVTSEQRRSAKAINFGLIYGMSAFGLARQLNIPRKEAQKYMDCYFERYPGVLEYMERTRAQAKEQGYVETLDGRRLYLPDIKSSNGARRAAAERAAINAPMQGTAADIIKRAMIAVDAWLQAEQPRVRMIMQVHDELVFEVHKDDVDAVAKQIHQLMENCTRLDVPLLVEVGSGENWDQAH
procedure.text: DNA polymerase I (Klenow fragment) single molecule device, nucleotide incorporation
Type: biochemical, E. Coli
assay.setup: homopolymer DNA substrate with complementary nucleotide
Attribute: τ hi
Return type: number; implicit unit ms.

Ask: Specify τ hi for `Cc1cn([C@H]2C[C@H](O)[C@@H](COP(=O)(O)OP(=O)(O)OP(=O)(O)O)O2)c(=O)[nH]c1=O` , system DNA polymerase 1 (Klenow Fragment, KF) (Escherichia coli, UniProt P00582, L790C).
Reply: 63.7

---

measurement.target: DNA polymerase 1 (Klenow Fragment, KF) (Escherichia coli, UniProt P00582, L790C)
Construct: a cysteine variant of the Klenow fragment of DNA polymerase 1 (KF); made in house
procedure.text: DNA polymerase I (Klenow fragment) single molecule device, nucleotide incorporation
Format: biochemical, E. Coli
assay.setup: homopolymer DNA substrate with complementary nucleotide
experimental.readout: turnover rate (s⁻¹)
Return type: number; implicit unit s⁻¹.

Ask: Given `Cc1cn([C@H]2C[C@H](O)[C@@H](COP(=O)(O)OP(=O)(O)OP(=O)(O)O)O2)c(=O)[nH]c1=O` , respond with its turnover rate.
Reply: 16.0

Ask: Given `Nc1ncnc2c1ncn2[C@H]1C[C@H](O)[C@@H](COP(=O)(O)OP(=O)(O)OP(=O)(O)O)O1` , respond with its turnover rate.
Reply: 14.4

Ask: Given `Nc1ccn([C@H]2C[C@H](O)[C@@H](COP(=O)(O)OP(=O)(O)OP(=O)(O)O)O2)c(=O)n1` , respond with its turnover rate.
Reply: 26.2

Ask: Given `Nc1nc2c(ncn2[C@H]2C[C@H](O)[C@@H](COP(=O)(O)OP(=O)(O)OP(=O)(O)O)O2)c(=O)[nH]1` , respond with its turnover rate.
Reply: 28.5

---

Attribute: τ lo
measurement.target: DNA polymerase 1 (Klenow Fragment, KF) (Escherichia coli, UniProt P00582, L790C)
Construct: a cysteine variant of the Klenow fragment of DNA polymerase 1 (KF); made in house
procedure.text: DNA polymerase I (Klenow fragment) single molecule device, nucleotide incorporation
Assay type: biochemical, E. Coli
assay.setup: homopolymer DNA substrate with complementary nucleotide
Return type: number; implicit unit ms.

Before answering, review these 2 worked examples.
[
  {
    "chem.smiles": "Nc1ncnc2c1ncn2[C@H]1C[C@H](O)[C@@H](COP(=O)(O)OP(=O)(O)OP(=O)(O)O)O1",
    "measurement.target": "DNA polymerase 1 (Klenow Fragment, KF) (Escherichia coli, UniProt P00582, L790C)",
    "τ lo (ms)": 0.33
  },
  {
    "chem.smiles": "Nc1ccn([C@H]2C[C@H](O)[C@@H](COP(=O)(O)OP(=O)(O)OP(=O)(O)O)O2)c(=O)n1",
    "measurement.target": "DNA polymerase 1 (Klenow Fragment, KF) (Escherichia coli, UniProt P00582, L790C)",
    "τ lo (ms)": 0.32
  }
]

Ask: Specify τ lo for `Cc1cn([C@H]2C[C@H](O)[C@@H](COP(=O)(O)OP(=O)(O)OP(=O)(O)O)O2)c(=O)[nH]c1=O` , system DNA polymerase 1 (Klenow Fragment, KF) (Escherichia coli, UniProt P00582, L790C).
Reply: 0.42

Ask: Specify τ lo for `Nc1nc2c(ncn2[C@H]2C[C@H](O)[C@@H](COP(=O)(O)OP(=O)(O)OP(=O)(O)O)O2)c(=O)[nH]1` , system DNA polymerase 1 (Klenow Fragment, KF) (Escherichia coli, UniProt P00582, L790C).
Reply: 0.33
